- Test system: MS2 coat protein
- method_notes: apparent Kd, MS2 coat protein; higher = weaker binding; RNA-MaP array; FMN 200 µM where present
- recorded_conditions: designed as: OFF switch for flavin mononucleotide; no ligand
Each item that follows carries a reported apparent Kd.
Numeric answer only, unit nM assumed.

Example entries begin here.
UAGUAUAAGGGCAUUAAACAUGAGGAUCACCCAUGUACGAUAGAGGAUAUGCAUUUCAGUUUAGAGUAGAAGGUUAGAGAAUUG = 39.5
GACUAGGCAGGAUAUACAUGAGGAUCACCCAUGUGUCUGCGUUAAGCACGUGAAGACGGUAGAAGGGCCUACAC = 14.4
GGAUCGAAUGUGAGGAUAUGCUGGUCCUUGGAUCAGCAGAAGGCACAUGAGGAUCACCCAUGUUUCCACGGUCC = 127

IN: GET /values?readout=apparent Kd&item= GGUGCGUUUGUGAGGAUAUGCUGGUCCUUGGAUCAGCAGAAGGCACAUGAGGAUCACCCAUGUGGUGUCGUACC
OUT: 447

IN: Now try GUCAGCAAAUAAGGAUAUACAACACUGCUUCGGCAGUGUAUUAAGAUCACAUGAGGAUCACCCAUGUAGAAGGUAUAAGCUGAU .
OUT: 6.98

###

- Test system: MS2 coat protein
- method_notes: apparent Kd, MS2 coat protein; higher = weaker binding; RNA-MaP array; FMN 200 µM where present
- recorded_conditions: designed as: ON switch for flavin mononucleotide; no ligand
Each item that follows carries a reported apparent Kd.
Numeric answer only, unit nM assumed.

AAAAAAAAAACUCAGGAUAUAGAUUGUAGAACAUGAGGAUCACCCAUGUAGUGAAAGAAGAGAGACUAGAAGGGAGUAAAAAAAAA = 85.7
UCGACCAGCGCAACUCGAACAUGAGGAUCACCCAUGUACUCCAGAAGGCCGCCCAAGUACGGAGUGGAGGAUAUGGAGGUUCUC = 56.9

Now let's try a different one.
IN: GET /values?readout=apparent Kd&item= CUUUAAGUCGAGAAGGACAUGAGGAUCACCCAUGUAGGAUAUCGAUUAGCUUGCAUCCCGAGCCGCAUCGGUGUGACUGGUGGG
OUT: 36.5

###

- System: MS2 coat protein
- method_notes: apparent Kd, MS2 coat protein; higher = weaker binding; RNA-MaP array; FMN 200 µM where present
- recorded_conditions: designed as: OFF switch for flavin mononucleotide; no ligand
# binarize apparent Kd: threshold 20 nM inclusive, high side TRUE, low side FALSE

IN: Is it the case that GCAGACUUGCUGAAGGUGUUCCACAUGAGGAUCACCCAUGUCAAGGAUAUAACGCGUCCGGCCCGUUAGAAGGUGACAGUUUGC has apparent Kd reaching or exceeding 20 nM?
OUT: TRUE

IN: Now try UGUGAGUUGAUCUUAGAUCGGAGUACAUGAGGAUCACCCAUGUAGGAUAUUCAAAGACGCAGAUAGAAGAAGGACAUAGGUUUC .
OUT: FALSE

IN: Now try CUGGGAUAGUGGGAUAGGGUUGCCAGAAGGGUCUACAUGAGGAUCACCCAUGUGGGUCCGAGUGGACAGGAUAUGGCGUCCGUA .
OUT: FALSE

IN: Now try GGAUUACAAAUUUAUUUAAUUCACAUGAGGAUCACCCAUGUGUAGGAUAUGCUAGUUAAGUAAUAGCAGAAGGACAUGUGCCUU .
OUT: FALSE

IN: Now try GCCUGCUGGCGAGGAUAUUCUGUGCGGUUCCGGCUCGUGUCUGUUACAUGAGGAUCACCCAUGUAGGAGAAGGUGUCUGUGGCC .
OUT: FALSE

IN: Now try UAAGUAAGUGCAGGAUAUUUAAGAAGAACAUGAGGAUCACCCAUGUGAGGAUCACCCAUGUAAAAGGAGAAGGGCAGAGUAUGA .
OUT: TRUE

IN: Now try AAUAUGUUGCAGAAGGCUAUGUUGUGGUAGUACCUCAUGACAUGAGGAUCACCCAUGUUUGUGUUGGAGGAUAUGCAAUAUAUU .
OUT: FALSE

IN: Now try UGUGAGUUGAUGUUAGAUCGGAGUACAUGAGGAUCACCCAUGUAGGAUAUUCAAAGACGCAGAUAGAAGAAGGACAUAGGUUUC .
OUT: FALSE

###

- Tested on: MS2 coat protein
- method_notes: apparent Kd, MS2 coat protein; higher = weaker binding; RNA-MaP array
- recorded_conditions: ligand present: flavin mononucleotide; designed as: ON switch for flavin mononucleotide
reported_endpoint: apparent Kd (nM)
Numeric answer only, unit nM assumed.

Example entries begin here.
GGAAAGUCUGAGAAGGGAUGAAGACAUGAGGAUCACCCAUGUGAAGGCCACUGGCUCCACAAGUAUCAGGAUAUCAGCAUAGCG = 20.6
AAUACAAAACAUGAGGAUCACCCAUGUCCCGAGACUAAACUAAGAAGGUGACCAACCAAAAGGGUCAAGGAUAUUAGGAUCUAU = 13.4
CACUGACAUGAGGAUCACCCAUGUAUGCUCGACCAAGGAUAUUGAUCAGACAAGCAUACGCAAGAAGGUGGUGAGA = 105
AGGAGACGCAAGGAGGAUAUUCAUAUGGUAACAUGAGGAUCACCCAUGUAGUUCUAGUUGGGACUGAAGAAGGCCUUGCUAGCGCA = 11.3
AGAGUUAUUGAGAAGGAAACAUUGACAUGAGGAUCACCCAUGUACUUGGCUAAGGAGCCGAGUGUUUAGGAUAUCAUUCAGAUA = 9.33

IN: GET /values?readout=apparent Kd&item= UUUUUAGGACAAGGAUAUUGAAUCGCACAUGAGGAUCACCCAUGUCCUCUGCAUACAGCGGACUUCAAGAAGGUGUCGACCAAU
OUT: 832

IN: Now try GGGCCCUUCUCAUAGGAUAUACUUUAUACCACAUGAGGAUCACCCAUGUAAACAUAAUUAAGAAAGUAGAAGGAUGACGAAAAUCG .
OUT: 8.98

IN: Now try AAUGACAUGAGGAUCACCCAUGUCCAUCUAAGCUCGGGUCUGCAGGAUAUUCCCGUGGGAUUAGGGAAGAAGGGCAGUGAUUGU .
OUT: 7.02

###

Each item that follows carries a reported apparent Kd.
- Tested on: MS2 coat protein
- method_notes: apparent Kd, MS2 coat protein; higher = weaker binding; RNA-MaP array; FMN 200 µM where present
- recorded_conditions: ligand present: flavin mononucleotide; designed as: ON switch for flavin mononucleotide
Numeric answer only, unit nM assumed.

Example entries begin here.
UUACUCAUGUAAGGAUAUGCAGCCGUUUCGGCUGCAGAAGGUACUAUAAUACAUGAGGAUCACCCAUGUCUCUAUUAUUUAGUG = 87.5
AAAAGGCAUCGUGACAUGAGGAUCACCCAUGUGAUUUGCUCACAGGAUAUCAUGCUCACGGAGCCUGAGAAGGGUGAAAGCUAA = 54.7
UCGACCAGCGCAACUCGAACAUGAGGAUCACCCAUGUACUCCAGAAGGCCGCCCAAGUACGGAGUGGAGGAUAUGGAGGUUCUC = 86.1
GCAGGAAAACUUGGUACAUGAGGAUCACCCAUGUAAAGCGGCAGAAGGGCGAUGUUAUGUAUAACGCAGGAUAUGCAGCGGAAU = 18.1
GAGAGAGGGUGAGGAUAUUUAGUGAUAAUGAUAAGAGAAGGCACAGACAUGAGGAUCACCCAUGUGGGAAUAAUCCAGAGAGAG = 290
GGACUGGACUAGAAGGGUGAUGCGCUCGCAGACACAGGAUAUAGUCACAUGAGGAUCACCCAUGUCGGUCCAUGUAAAGAAACU = 14.8
GAGAUUUUGUAAGGAUAUACUCUGUGAUGAAGAGUAGAAGGUACUUACAUGAGGAUCACCCAUGUUUAACGAGAUACUAAUCGU = 23.3
CUAGUUGUCGCAGGAUAUGCCCGCUGGUUGGAGGCAGAAGGGUGACACCAAAUAUUAUACAUGAGGAUCACCCAUGUCGCCAGC = 20.6

IN: GET /values?readout=apparent Kd&item= GUCGGAAACGACAAGUAGCAAUCGGAGGAUAUUCAUGAAAACAUGAGGAUCACCCAUGUAAAUUGGGAGAAGGCCGAUUGCUAC
OUT: 8.48

IN: Now try CUCAAACAUGAGGAUCACCCAUGUGUUGUCAUGGGAGGAUAUCUAAGUUCGUUGUAGUCGGGAGAAGGCCUAUGUC .
OUT: 47.2

IN: Now try AUGAUUAUACAAGGAUAUCAAUUGUAUACAAGUCUUACAUGAGGAUCACCCAUGUUAAAUUUUUUUGAGAAGGUGUGUUGUCAG .
OUT: 30.6

IN: Now try CGGACAAUGCCCGAGACAUGAGGAUCACCCAUGUUAGCAGCACAGGAUAUCAUGUUUUGUAAAGGUGAGAAGGGUGAUUGCAUC .
OUT: 68.2

IN: Now try AAUCACAUGAGGAUCACCCAUGUGCCAGAAGGCACAAAUCUGCCUGGUGCGCCCGGGCUUCUCUGUGAGGAUAUGGAAAAGAAG .
OUT: 76

Measured values drawn from the EternaBench riboswitch data for this set.
